system: OCI-LY19; experiment: OCI-LY19 viability, CTG; type: cell-based; conditions: Homo sapiens, OCI-LY19; MYD88 WT; read-out: OCI-LY19 CTG IC50
Measured IC50, listed per entry.
Please give a number only; it is taken to be in nM.

Answered cases to consult:
>  <molecule>
CN(C[C@H]1CC[C@H](n2cc(NC(=O)c3coc(-c4ccnc(NCC5CC5)c4)n3)c(C(F)F)n2)CC1)C1CCN(Cc2cccc3c2n(C)c(=O)n3C2CCC(=O)NC2=O)CC1 (stereo partly drawn)

>  <IC50 (nM)>
480

$$$$
>  <molecule>
O=C1CCC(N2C(=O)c3cccc(NCCCOC4CCN(C[C@H]5CC[C@H](n6cc(NC(=O)c7cnn8ccc(N9CCOCC9)nc78)c(C(F)F)n6)CC5)CC4)c3C2=O)C(=O)N1 (stereo partly drawn)

>  <IC50 (nM)>
1700

$$$$

Switching to the query record.
Entry CN(CCCOCCNc1cccc2c1C(=O)N(C1CCC(=O)NC1=O)C2=O)C[C@H]1CC[C@H](n2cc(NC(=O)c3coc(-c4ccnc(NCC5CC5)c4)n3)c(C(F)F)n2)CC1 (stereo partly drawn) , system OCI-LY19: what IC50 was measured?
430

The origin of these recorded values is patent US11352350B2.
